assay_target: S-adenosylmethionine decarboxylase proenzyme (Escherichia coli)
recorded_endpoint: IC50 (µM)
Answers are plain numbers, in µM.

Input: Give a short answer stating reported IC50 for C[S+](CCCC(N)C#N)C[C@H]1O[C@@H](n2cnc3c(N)ncnc32)[C@H](O)[C@@H]1O (stereo partly specified) .
Output: 50

---

protocol_text: Compound was evaluated to inactivate the bacterial AdoMet-DC
recorded_endpoint: pKi
Numbers only, as −log10 of the molar value.

Input: Give a short answer stating reported pKi for C[S+](CCC(N)C#N)C[C@H]1O[C@@H](n2cnc3c(N)ncnc32)[C@H](O)[C@@H]1O (stereo partly specified) .
Output: 4.51
